EXPERIMENTAL TARGET: EP300 (P300(1048-1664)) (Homo sapiens)
Construct: P300(1048-1664)
Sequence (Q09472 1048-1664): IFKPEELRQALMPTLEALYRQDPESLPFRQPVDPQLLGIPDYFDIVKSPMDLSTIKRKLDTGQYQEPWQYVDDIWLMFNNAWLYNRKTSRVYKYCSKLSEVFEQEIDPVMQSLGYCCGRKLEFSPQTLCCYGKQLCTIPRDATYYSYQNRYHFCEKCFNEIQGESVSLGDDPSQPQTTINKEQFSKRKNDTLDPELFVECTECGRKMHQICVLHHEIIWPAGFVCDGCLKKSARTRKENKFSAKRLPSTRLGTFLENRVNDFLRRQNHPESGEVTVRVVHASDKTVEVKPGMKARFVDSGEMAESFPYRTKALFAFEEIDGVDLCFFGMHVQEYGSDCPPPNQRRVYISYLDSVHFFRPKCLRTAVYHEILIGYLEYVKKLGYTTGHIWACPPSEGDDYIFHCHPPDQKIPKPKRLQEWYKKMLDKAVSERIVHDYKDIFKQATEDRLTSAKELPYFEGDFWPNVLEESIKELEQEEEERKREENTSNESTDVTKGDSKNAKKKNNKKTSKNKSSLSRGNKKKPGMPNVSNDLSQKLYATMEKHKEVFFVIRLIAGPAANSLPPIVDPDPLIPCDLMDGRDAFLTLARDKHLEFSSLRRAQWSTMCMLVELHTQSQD
TEST SUMMARY: Biochemical assay for EP300, SAMDI
CONDITION DESCRIPTION: EP300, SAMDI; read-out: EP300 Biochemistry IC50
Would you kindly list IC50 for each of these compounds?
Reply with just the number (in µM).

Request: Reported IC50, compound CCn1ncc(CN(C)C(=O)c2nc(-c3cc4c(NC)[nH]nc4cc3C)nc3ccc(C)cc23)c1C [Compound 612] : ____
Result: 0.0066

Request: Reported IC50, compound CCn1ncc(CN(C)C(=O)c2nc(-c3nn(C)c(C(=O)NC)c3Cl)nc3ccc(Cl)cc23)c1C [Compound 448] : ____
Result: 35.5

Request: Reported IC50, compound CCn1ncc(CN(C)C(=O)c2cc(-c3ccc(N(C)CCNC)c(C)n3)nc3ccc(Cl)cc23)c1C [Compound 417] : ____
Result: 16
